Source: patent US20250236642A1

Target: T1, HLA-A*24:02 molecule
T1 construct: MHC class I molecule on C1R-A24 cells, endogenous peptide and b2m stripped at pH 3.3, purified b2m added back; also called product of an HLA-A*24:02 gene; allele A*24:02
Test: flow cytometry, C1R-A24 cells;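 further: Read-out was the amount of peptide–MHC complex on each cell, taken as the fluorescence intensity of a bound fluorescent antibody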
Recorded log10 Kd (M), one value per entry.
experimental.readout: log10 Kd (M)

[[record]]
binder = "STGESAQTS (synthetic 9-mer derived from Casp-8) [peptide of SEQ ID NO: 71]"
recorded_value = "> -3"

[[record]]
binder = "IFADVSSST (synthetic 9-mer derived from c-Myb) [peptide of SEQ ID NO: 78]"
recorded_value = "> -3"

[[record]]
binder = "SLPNEKQTS (synthetic 9-mer derived from Casp-8) [peptide of SEQ ID NO: 69]"
recorded_value = "> -3"

[[record]]
binder = "ATLAPAVLL (synthetic 9-mer derived from EVC1) [peptide of SEQ ID NO: 10]"
recorded_value = -5.2

[[record]]
binder = "CLDEHQWQL (synthetic 9-mer derived from EVC1) [peptide of SEQ ID NO: 9]"
recorded_value = -5.87

[[record]]
binder = "VLLQQFQTA (synthetic 9-mer derived from EVC2) [peptide of SEQ ID NO: 15]"
recorded_value = -5.55

[[record]]
binder = "ISAYRTCWI (synthetic 9-mer derived from Casp-8) [peptide of SEQ ID NO: 34]"
recorded_value = -5

[[record]]
binder = "LPFSPSQFL (synthetic 9-mer derived from c-Myb) [peptide of SEQ ID NO: 60]"
recorded_value = -3.35

[[record]]
binder = "SLPFSPSQF (synthetic 9-mer derived from c-Myb) [peptide of SEQ ID NO: 56]"
recorded_value = -7

[[record]]
binder = "VFGRVMQID (synthetic 9-mer derived from Wnt5a; also called A15) [peptide of SEQ ID NO: 66]"
recorded_value = -5.41

[[record]]
binder = "LLLFSAAAL (synthetic 9-mer derived from CADM1) [peptide of SEQ ID NO: 1]"
recorded_value = -4.96

